The origin of these recorded values is the nanobody polyreactivity screen of Harvey et al. (2022).

# Method: yeast display, Sf9 membrane polyspecificity reagent, FACS + sequencing; frameworks hold sequencing errors

Biosequence | polyreactivity (PSR sort gate)
QVQLVESGGGLVHAGGSLRLSCAASGSTFVRNAMGWYRQAPGKERELVAAITSRGGSTYYADSVKGRFTISRDNAKNTVYLQMNSLKPEDTAVYYCAARFGVKRGQYDYWGQGTQVTVSS | high polyreactivity
QVQLVESGGGLVQAGGSLRLSCAASGFTFHTYAMGWYRQAPGKERELVAAIDSSGGITYYADSVKGRFTISRDHAKNTVYLQMNSLKPEDTAVYYCAAVFLLFGFEWSYDYWGQGTQVTVSS | low polyreactivity
QVQLVESGGGLVQAGGSLRLSCAASGITLNRNAMGWYRQAHGKERELVARISRRGGTTYYADSVKGRFTISRDNAKNTVYLQMNSLKPEDTAVYYCNAGPYGGNPFDYWGQGTQVTVSS | high polyreactivity
QLQLVESGGGLVQAGGSLRLSCASSGSNFQPYAMGWYRQAPGIERELVAAISRGGTTYYADSVKGRFTISRDNAKTTVYLQMNSLKPEDTAVYYCAADSYKPDGYRLRNDYWGQGTQVIVSS | high polyreactivity
QVQLVESGGGLVQAGGSLRLSCAASGSIFYRYAMGWYRQAPGKERELVAAINDSGGGTYYADSVKGRFTISRDNAKNTVYLQMNSLKPEDTAVYYCAAATHNKHTARDDYWGQGTQVTVSS | low polyreactivity
QVQIVDSGGGLVQAGGRLRLTCAASGSTFYVYTMGWSRQAPGKESELFDRISSGGSTKYADSVKGRFTISRVNANNTVYLQMNILKPEDTAVYYCNADGLYLFGISYGKFLKYGHWGHGTQVTVSS | low polyreactivity
QVQLVESGGGLVQAGGSLSLSSAASGSIFVGNAIAWYRQAPGKERELVATISWSCGSTYYADSVKGRFTISRDYAKNNVYLQMNSRKPEDTAVYYCAAEFGGYDPYDYWGQGTQVTVSS | low polyreactivity
QVKIVESGGGLVQAGGSLRLSCAATGITFAWYAMGWYRQAPGKERELVAAITWSGDSTYYADSVKGRFTISRDNAKNTVYLQMKSLKPEDTAVYYCAAEGLVFWFGTPYDYWGQGTQVTVSS | high polyreactivity
QVQLVESGGGLVQAGGSLRLSCAASGRISKRYTMGWYRQAPGKERELVAAITNSGGTTYYADSVKGRFTISRDNAKNTVYLQMNSLKPEDTAVYYCNKPYGAETAHREFDYWGQGTQVTVSS | low polyreactivity
QVQLVESGGGLVQAGGSLRLSCAASGFTFAVYAMGWYRQAPGKERELVAAINRGGGSTYADSVKGRFTISRDTAKNTVYLQMNSLKPEDTAVYYCAARVYGTRKINYSWGQGTQVTVSS | high polyreactivity
QVQLVESGGGLVQAGGSLRLSCAASAGIFVVYGMGWYRQAPGKERELVAAISWRGGSTYYADSVKGRFTISRDNAKNTVYLQMNSLKPEDTAVYYCAADQYYGGYDYWGQGTQVTVSS | low polyreactivity
QVQLVESGGGLVQAGGSLRLSCAASGRIFPRYGMGWYRQAPGKERELVADITSSGSTYADSVKGRFTISRDNAKNTVYLQMNSLKPEDTAVYYCNALYRRLSYSWRYRQLYDYWGQGTQVTVSS | high polyreactivity

----------
# Method: yeast display, Sf9 membrane polyspecificity reagent, FACS + sequencing; frameworks hold sequencing errors
Readout: polyreactivity (PSR sort gate)

Biosequence | Readout | Result
QVQLVESGGGLVQAGGSLRLSCAASGSIFFWNTMGWYRQAPGKERELVAAISSGGSTYYADSVKGRFTISRDTAKNTVYLQMNSLRPEDTAVYYCAAVYSGLYSYYYWGQGTQVTVSS | polyreactivity (PSR sort gate) | low polyreactivity
QVQLVESGGGLVQAGGSLRLTCAASGRTFSKYAMGWYRQATGKERELVAAITSGGGTYYADSVKGRFTISRDNAKNTVYLQMNSLNPEDTAVYYCAVSVTTVSTYDYWGQGTQVTVSS | polyreactivity (PSR sort gate) | low polyreactivity
QFQHVESGGGLDQARGRLRLSCAASGYTFAKYTMGSYRQAPGKERELVAAISRGGSTTYADSVKGRFTISRDNAKNTVYLQMNSLKPEDTAVYDCAASGTKREDGYSLGYPRAGDYWGQGTQVTVSS | polyreactivity (PSR sort gate) | low polyreactivity
QVQLVESGGGLVQAGGSLRLSCAASGSIFVFYDMGWYRQAPGKERELVATISSGGGGTYYTDSVKGRFTISRDNAKNTVYLQLNSLKPEDTAVYYCAAEGDKYGKGYGYWGQGTQVTVSS | polyreactivity (PSR sort gate) | low polyreactivity
QVHLVESGGGLVQAGGSLRLSCAASGFIFIRYAMGWYRQAPGKERELVAAINGGGSSTYYADSVKGRFTISRDNAKYTVYLQMNSLKPEDTAVDYCDADTDSWWYYLYYGDGFDYWGQGTQVTVSS | polyreactivity (PSR sort gate) | high polyreactivity
QVQLVESGGGIVQAGGSLRLSCAASGLTFRYYAMGWYRQAPGKERELVAAISGSGGSTYYADSVKGRFTISRDNAKNTVYLQLNRLKPEDTAVYYFASENESSSWGDYAMGYWGQGTQVTVST | polyreactivity (PSR sort gate) | high polyreactivity
QVQLVESGGALVQAGGSLRLSCAASAFIFKANAMGRYRQAPGKERELVASITFGGDSTYYADSVKGRFTISRDNAKNTVYLQMNSLKAEDNAVYFCNTRRRSYPTYYYWGQGTQVTVLS | polyreactivity (PSR sort gate) | low polyreactivity
